biological target: T1, HLA-DR7 (HLA-DRB1*07:01) (human); assay: competition ELISA vs biotin-YKL
T1 construct: mature; purified from homozygous EBV-transformed lymphoblastoid cells with antibody L243
No end group written: not given here.
Short version: relative affinity at least 300 is 1, less is -1.

Please review the entries below; each comes with its answer.
EQLQAKMPMKKEAKP-NH2 [CCNB1 54-68]; 1
RQLEEEQAVRPKYLL-NH2 [CCNB1 179-193]; -1
KDIYAYLRQLEEEQA-NH2 [CCNB1 172-186]; 1
NKYATSKHAKISTLP-NH2 [CCNB1 402-416]; -1
KHMTVKNKYATSKHA-NH2 [CCNB1 396-410]; 1

Decide: relative affinity of RALNFGLGRPLPLHF-NH2 [CCNB1 291-305] >= 300?
-1

Determine whether measured relative affinity meets or exceeds 300 for SKYEEMYPPEIGDFA-NH2 [CCNB1 256-270]
-1
